B1: TMEM192 (parent)
chain: ILGKVILWILHLLLECYIQYHHSK

Variants of: B1
Experiment: protein stability index of a GFP-peptide fusion (GPS, HEK-293T) (PSI 1-6); higher = more stable;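 note: lentivirally expressed fusions sorted by FACS into six bins by GFP to DsRed ratio, PSI derived from sequencing read proportions per bin multiplied by bin number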
Details: c terminus: a fixed tail appended
outcome-measure: protein stability index
Please give the numeric answer without any surrounding text.

Query: Quick one: protein stability index of I1T ?
Response: 3.49

Query: And for K4T ?
Response: 2.8

Query: And for I9E ?
Response: 4.08

Query: And for I9V ?
Response: 3.3

Query: And for L13M ?
Response: 3.1

Query: And for L10M ?
Response: 3.36

Query: And for H11I ?
Response: 3.89

Query: And for Y20M ?
Response: 3.73

Query: And for L13W ?
Response: 2.21

Query: And for H11G ?
Response: 2.09

Query: And for V5C ?
Response: 2.73
